Hey, just so you know, these numbers are from patent US20210347865A1.

target: T1, native human ApoC3 (human, UniProt P02656 21-99, biotinylated in the captured-antigen assays (Tables 6 and 8); sites not stated); test: SPR, IgG captured via anti-human Fc, ApoC3 analyte 400 nM
T1 construct: also called nhuApoC3; native huApoC3
T1 sequence (P02656 21-99): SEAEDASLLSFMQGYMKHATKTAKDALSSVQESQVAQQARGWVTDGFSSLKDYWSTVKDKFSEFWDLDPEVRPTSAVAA
Rule: measured koff below 0.0003 s⁻¹ gets true; anything equal to or greater than 0.0003 s⁻¹ gets false.

Solved entries (count: 6):
binder	group label
29A06 IgG (antibody, V domains shown) VH: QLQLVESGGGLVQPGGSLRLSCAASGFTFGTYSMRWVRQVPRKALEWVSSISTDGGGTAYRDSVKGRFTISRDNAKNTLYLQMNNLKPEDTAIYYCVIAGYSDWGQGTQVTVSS VL: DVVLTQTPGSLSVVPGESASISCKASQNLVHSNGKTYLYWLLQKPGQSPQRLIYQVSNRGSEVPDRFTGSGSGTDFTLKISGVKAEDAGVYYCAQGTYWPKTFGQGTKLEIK	false
29G02 IgG (antibody, V domains shown) VH: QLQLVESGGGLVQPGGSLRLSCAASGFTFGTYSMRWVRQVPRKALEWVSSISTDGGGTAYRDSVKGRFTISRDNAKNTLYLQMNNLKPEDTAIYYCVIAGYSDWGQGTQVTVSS VL: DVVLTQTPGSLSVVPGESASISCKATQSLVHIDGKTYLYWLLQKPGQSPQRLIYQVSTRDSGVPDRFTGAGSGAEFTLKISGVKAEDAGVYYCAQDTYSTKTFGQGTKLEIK	false
5E5 WT IgG (antibody, V domains shown, Full-length IgG captured by an anti-human Fc antibody) VH: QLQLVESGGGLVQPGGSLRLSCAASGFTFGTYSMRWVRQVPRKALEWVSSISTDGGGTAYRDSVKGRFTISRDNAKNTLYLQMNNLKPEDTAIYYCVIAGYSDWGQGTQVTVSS VL: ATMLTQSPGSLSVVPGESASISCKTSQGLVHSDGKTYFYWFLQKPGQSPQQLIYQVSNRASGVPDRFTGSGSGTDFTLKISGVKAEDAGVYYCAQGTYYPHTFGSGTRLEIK	true
29B03 IgG (antibody, V domains shown) VH: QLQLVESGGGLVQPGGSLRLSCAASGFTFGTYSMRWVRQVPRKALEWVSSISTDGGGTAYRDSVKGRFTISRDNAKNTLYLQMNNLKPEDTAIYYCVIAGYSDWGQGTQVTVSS VL: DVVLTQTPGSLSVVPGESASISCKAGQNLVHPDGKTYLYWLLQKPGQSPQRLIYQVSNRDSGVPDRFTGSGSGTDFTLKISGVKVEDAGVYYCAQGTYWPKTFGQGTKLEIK	true
29A05 IgG (antibody, V domains shown) VH: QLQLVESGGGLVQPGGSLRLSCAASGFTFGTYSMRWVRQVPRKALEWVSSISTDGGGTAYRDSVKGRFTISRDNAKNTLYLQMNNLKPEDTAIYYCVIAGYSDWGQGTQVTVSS VL: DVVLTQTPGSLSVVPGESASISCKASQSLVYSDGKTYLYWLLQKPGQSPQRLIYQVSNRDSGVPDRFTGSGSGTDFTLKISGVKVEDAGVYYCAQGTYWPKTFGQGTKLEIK	false
29F10 IgG (antibody, V domains shown) VH: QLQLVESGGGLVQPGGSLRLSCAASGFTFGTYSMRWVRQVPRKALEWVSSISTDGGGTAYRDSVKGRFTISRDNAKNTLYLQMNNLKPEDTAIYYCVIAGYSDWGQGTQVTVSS VL: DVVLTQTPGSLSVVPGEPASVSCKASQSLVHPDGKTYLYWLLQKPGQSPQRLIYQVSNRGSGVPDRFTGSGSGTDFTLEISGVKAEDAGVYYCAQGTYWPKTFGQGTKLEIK	true

Next binder, please.
Input: Does this binder meet the criterion koff < 0.0003 s⁻¹? 29G11 IgG (antibody, V domains shown) VH: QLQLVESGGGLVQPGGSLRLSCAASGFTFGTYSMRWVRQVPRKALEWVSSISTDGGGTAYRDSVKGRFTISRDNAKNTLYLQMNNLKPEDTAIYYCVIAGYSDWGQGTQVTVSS VL: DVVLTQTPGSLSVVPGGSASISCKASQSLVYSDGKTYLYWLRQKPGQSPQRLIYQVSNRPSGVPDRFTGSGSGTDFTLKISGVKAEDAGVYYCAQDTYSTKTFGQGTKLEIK
Output: false
